In this section, each of the variants is paired with its reported protein stability index.
B1: MTMR15 (parent)
chain: YVKAKKSIDKDEEFAGSSPQSSKS

- Variants of: B1
- EXPERIMENT_SUMMARY: protein stability index of a GFP-peptide fusion (GPS, HEK-293T) (PSI 1-6); higher = more stable;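 note: lentivirally expressed fusions sorted by FACS into six bins by GFP to DsRed ratio, PSI derived from sequencing read proportions per bin multiplied by bin number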
- CONDITION_INFO: c terminus: a fixed tail appended
# output: bare number, no unit

Worked set:
SEQUENCE_DATA	protein stability index
YVKAKPSIDKDEEFAGSSPQSSKS [K6P]	3.05
YVKDKKSIDKDEEFAGSSPQSSKS [A4D]	3.27
YVKAKKSIDKDEEFAGSSCQSSKS [P19C]	3.23
YVKAKKVIDKDEEFAGSSPQSSKS [S7V]	3.13
YVKAKKSIDKAEEFAGSSPQSSKS [D11A]	2.83

Consider the record given below.
Looking up YVKAKKSIDCDEEFAGSSPQSSKS [K10C] , I found its protein stability index recorded as 3.27

Recorded values, source the supplement of paper PMC10567573.
